So I've got a bunch of compounds here, and I need their normalised response values.
test system: HCC1599; assay: normalised response (% of control), CellTiter-Glo; higher = more viable cells (100 = DMSO, 0 = benzethonium chloride kill control); conditions: incubation time: 72 h
Give bare numbers, in %.

Known normalised response results, listed for orientation:
COMPOUND	READOUT_TYPE	UNIT_SYMBOL	READING
OC[C@H]1O[C@@H](n2cnc3c2N=CNC[C@H]3O)C[C@@H]1O [Pentostatin] (10 nM)	normalised response	%	104
O=C(c1ccc(C(=O)N2CCC(N3CCCC3)CC2)c(Nc2ccccc2)c1)N1CCC(N2CCCC2)CC1 [UNC1215] (30 nM)	normalised response	%	118
CCN1CCN(c2ccc(Nc3cc(N(C)C(=O)Nc4c(Cl)c(OC)cc(OC)c4Cl)ncn3)cc2)CC1 [NVP-BGJ398] (100 nM)	normalised response	%	102
Cc1c2oc3c(C)ccc(C(=O)N[C@@H]4C(=O)N[C@H](C(C)C)C(=O)N5CCC[C@H]5C(=O)N(C)CC(=O)N(C)[C@@H](C(C)C)C(=O)O[C@@H]4C)c3nc-2c(C(=O)N[C@@H]2C(=O)N[C@H](C(C)C)C(=O)N3CCC[C@H]3C(=O)N(C)CC(=O)N(C)[C@@H](C(C)C)C(=O)O[C@@H]2C)c(N)c1=O [Dactinomycin] (0.1 nM)	normalised response	%	90.6
CO[C@H]1C[C@@H]2CC[C@@H](C)[C@@](O)(O2)C(=O)C(=O)N2CCCC[C@H]2C(=O)O[C@H]([C@H](C)C[C@@H]2CC[C@@H](OC(=O)C(C)(CO)CO)[C@H](OC)C2)CC(=O)[C@H](C)/C=C(\C)[C@@H](O)[C@@H](OC)C(=O)[C@H](C)C[C@H](C)/C=C/C=C/C=C/1C [Temsirolimus] (0.01 nM)	normalised response	%	97

Below are some compounds; for each one, tell me its normalised response.
1. CN1CC[C@H](c2c(O)cc(O)c3c(=O)cc(-c4ccccc4Cl)oc23)[C@H](O)C1 [Alvocidib] (1 nM)
2. Cc1c2oc3c(C)ccc(C(=O)N[C@@H]4C(=O)N[C@H](C(C)C)C(=O)N5CCC[C@H]5C(=O)N(C)CC(=O)N(C)[C@@H](C(C)C)C(=O)O[C@@H]4C)c3nc-2c(C(=O)N[C@@H]2C(=O)N[C@H](C(C)C)C(=O)N3CCC[C@H]3C(=O)N(C)CC(=O)N(C)[C@@H](C(C)C)C(=O)O[C@@H]2C)c(N)c1=O [Dactinomycin] (100 nM)
3. COc1cccc2c1C(=O)c1c(O)c3c(c(O)c1C2=O)C[C@@](O)(C(=O)CO)C[C@@H]3O[C@H]1C[C@H](N)[C@H](O)[C@H](C)O1 [Doxorubicin] (100 nM)
4. CC[C@]1(O)C[C@@H]2CN(CCc3c([nH]c4ccccc34)[C@@](C(=O)OC)(c3cc4c(cc3OC)N(C)[C@H]3[C@@](O)(C(=O)OC)[C@H](OC(C)=O)[C@]5(CC)C=CCN6CC[C@]43[C@@H]65)C2)C1 [Vinblastine] (100 nM)

Ans:
94.2
8.92
115
26.6
